TARGET OR TEST SYSTEM: GST-ANAC092(1-176) (Arabidopsis thaliana, UniProt Q9FKA0 1-176)
Sequence: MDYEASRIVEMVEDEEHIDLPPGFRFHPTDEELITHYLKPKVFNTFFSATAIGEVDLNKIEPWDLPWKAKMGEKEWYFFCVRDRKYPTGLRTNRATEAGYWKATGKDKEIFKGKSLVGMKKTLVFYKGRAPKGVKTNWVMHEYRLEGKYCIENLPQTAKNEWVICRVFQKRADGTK
ASSAY PROCEDURE: universal protein binding microarray (PBM); transcription factors of Arabidopsis thaliana; high values mean tight binding
TEST PARAMETERS: protein: recombinant; tags: GST; chain copies: 2; dsDNA, one strand shown
# binding signal per entry
State just the number; it will be interpreted in E-score.

These solved cases illustrate the format of a correct answer.
RESIDUE STRING | binding signal, E-score
CACGCAAC | 0.496
CTCTTGAC | 0.059
ACGTTAGC | 0.377
AGTCCACG | 0.062
GACACGCA | 0.43

For the record "TATCGTAA" , what value of binding signal is listed for GST-ANAC092(1-176) (Arabidopsis thaliana, UniProt Q9FKA0 1-176)?
0.2

For the record "CTTACCCC" , what value of binding signal is listed for GST-ANAC092(1-176) (Arabidopsis thaliana, UniProt Q9FKA0 1-176)?
0.192

For the record "TAACGTAA" , what value of binding signal is listed for GST-ANAC092(1-176) (Arabidopsis thaliana, UniProt Q9FKA0 1-176)?
0.452

For the record "GATTGACC" , what value of binding signal is listed for GST-ANAC092(1-176) (Arabidopsis thaliana, UniProt Q9FKA0 1-176)?
0.141

For the record "CTTGCGTA" , what value of binding signal is listed for GST-ANAC092(1-176) (Arabidopsis thaliana, UniProt Q9FKA0 1-176)?
0.471

For the record "ATTGGTCA" , what value of binding signal is listed for GST-ANAC092(1-176) (Arabidopsis thaliana, UniProt Q9FKA0 1-176)?
0.0884
